Values compiled from patent US20210155689A1.

Quick reference for Inhibition rate (%) among some binders
Target or test system: T1, LAG-3-hFc protein (human LAG-3 extracellular region with hFc tag) (human, UniProt P18627 23-450)
T1 construct: also called hLAG-3-hFc; LAG-3 protein; not shown: human IgG Fc fragment (hFc) of the pCpC vector
T1 sequence: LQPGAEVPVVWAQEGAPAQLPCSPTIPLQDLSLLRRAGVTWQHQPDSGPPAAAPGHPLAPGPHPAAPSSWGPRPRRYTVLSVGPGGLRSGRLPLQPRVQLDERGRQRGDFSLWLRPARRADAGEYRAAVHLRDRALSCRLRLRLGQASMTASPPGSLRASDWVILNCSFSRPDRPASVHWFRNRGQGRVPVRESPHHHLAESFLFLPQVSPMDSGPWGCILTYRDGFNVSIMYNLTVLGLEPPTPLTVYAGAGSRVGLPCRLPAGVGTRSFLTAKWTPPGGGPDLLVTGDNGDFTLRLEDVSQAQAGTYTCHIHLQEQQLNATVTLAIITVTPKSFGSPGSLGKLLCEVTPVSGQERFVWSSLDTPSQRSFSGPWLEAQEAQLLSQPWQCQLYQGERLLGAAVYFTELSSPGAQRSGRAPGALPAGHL
Test protocol: FACS, inhibition of LAG-3-hFc binding to MHC II on Raji cells, antibody 200.000 nM
Numbers only; they are read as %.

Examples with their reported Inhibition rate (%) follow.
Can you look up the measured Inhibition rate (%) of 409D4E10 mouse-human chimeric antibody (antibody, V domains shown, also called mAb112-409D4E10) VH: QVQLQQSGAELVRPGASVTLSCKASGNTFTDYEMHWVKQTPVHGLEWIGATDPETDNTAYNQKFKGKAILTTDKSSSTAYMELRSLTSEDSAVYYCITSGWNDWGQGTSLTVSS VL: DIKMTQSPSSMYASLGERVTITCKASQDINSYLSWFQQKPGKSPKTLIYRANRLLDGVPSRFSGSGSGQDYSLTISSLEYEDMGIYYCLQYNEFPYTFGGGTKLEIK for me?
95.7

Can you look up the measured Inhibition rate (%) of 405B8H3 mouse-human chimeric antibody (antibody, V domains shown, also called mAb103-405B8H3) VH: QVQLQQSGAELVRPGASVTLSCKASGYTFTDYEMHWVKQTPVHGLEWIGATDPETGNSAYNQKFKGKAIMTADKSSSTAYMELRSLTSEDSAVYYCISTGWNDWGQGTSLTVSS VL: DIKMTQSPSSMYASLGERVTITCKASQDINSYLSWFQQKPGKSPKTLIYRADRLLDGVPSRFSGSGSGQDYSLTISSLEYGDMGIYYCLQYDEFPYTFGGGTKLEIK for me?
95.2

Can you look up the measured Inhibition rate (%) of 105F1E10 mouse-human chimeric antibody (antibody, V domains shown, also called mAb009-105F1E10) VH: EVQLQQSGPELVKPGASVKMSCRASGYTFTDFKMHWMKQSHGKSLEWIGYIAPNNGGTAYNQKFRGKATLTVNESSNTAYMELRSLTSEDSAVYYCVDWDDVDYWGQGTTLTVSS VL: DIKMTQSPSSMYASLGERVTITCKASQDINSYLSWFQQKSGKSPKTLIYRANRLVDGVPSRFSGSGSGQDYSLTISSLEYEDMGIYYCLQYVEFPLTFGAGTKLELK for me?
96

Okay, now this binder:
Can you look up the measured Inhibition rate (%) of 556F6B8 mouse-human chimeric antibody (antibody, V domains shown, also called mAb123-556F6B8; 556F8B8) VH: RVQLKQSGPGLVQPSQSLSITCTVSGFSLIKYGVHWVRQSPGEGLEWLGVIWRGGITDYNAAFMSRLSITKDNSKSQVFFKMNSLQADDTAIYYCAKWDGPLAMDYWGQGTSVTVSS VL: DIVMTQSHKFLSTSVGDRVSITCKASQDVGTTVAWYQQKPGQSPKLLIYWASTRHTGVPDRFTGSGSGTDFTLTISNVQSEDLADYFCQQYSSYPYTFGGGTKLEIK for me?
95.2
